Each entry below carries its reported Unordered.
# studySystem: BSA (Bos taurus, UniProt P02769)
# Construct: purchased Millipore Sigma-Aldrich
# Sequence (P02769 25-607): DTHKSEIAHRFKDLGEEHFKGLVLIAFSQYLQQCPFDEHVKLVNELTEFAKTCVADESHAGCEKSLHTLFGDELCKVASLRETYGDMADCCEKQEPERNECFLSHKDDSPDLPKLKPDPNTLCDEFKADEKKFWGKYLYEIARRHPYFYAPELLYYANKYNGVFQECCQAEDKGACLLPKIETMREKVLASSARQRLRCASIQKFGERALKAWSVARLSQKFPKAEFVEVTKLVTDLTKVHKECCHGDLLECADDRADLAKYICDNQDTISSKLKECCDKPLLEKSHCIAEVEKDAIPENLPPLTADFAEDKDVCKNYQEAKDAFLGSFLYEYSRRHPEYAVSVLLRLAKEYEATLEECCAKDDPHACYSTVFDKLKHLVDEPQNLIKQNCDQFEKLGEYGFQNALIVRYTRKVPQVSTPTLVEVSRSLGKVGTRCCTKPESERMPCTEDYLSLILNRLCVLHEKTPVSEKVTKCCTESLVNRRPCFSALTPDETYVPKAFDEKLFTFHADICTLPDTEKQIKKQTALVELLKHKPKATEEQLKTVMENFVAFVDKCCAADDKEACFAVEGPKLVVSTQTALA
# assayOverview: Far-UV CD secondary structure of BSA (CONTIN-LL deconvolution)
# Format: physicochemical, bovine
# conditionParameters: 1.0 mg/mL BSA, 0.1 mM component, 25 °C
Enter the number alone.

compound="C[N+](C)(C)CCO.C[N+](C)(C)CCO.O=P([O-])(O)O.O=P([O-])(O)O [[N1112(OH)][H2PO4]]" studysystem="BSA (Bos taurus, UniProt P02769)" observedresult=0.221
compound=OC[C@H]1O[C@@](CO)(O[C@H]2O[C@H](CO)[C@@H](O)[C@H](O)[C@H]2O)[C@@H](O)[C@@H]1O studysystem="BSA (Bos taurus, UniProt P02769)" observedresult=0.242
compound=CCn1cc[n+](C)c1.O=S(=O)([O-])C(F)(F)C(F)(F)C(F)(F)C(F)(F)F studysystem="BSA (Bos taurus, UniProt P02769)" observedresult=0.216
compound="C[N+](C)(C)CCO.O=S(=O)([O-])C(F)(F)C(F)(F)C(F)(F)C(F)(F)F [[N1112(OH)][C4F9SO3]]" studysystem="BSA (Bos taurus, UniProt P02769)" observedresult=0.205

Let's switch to this compound now.
Provide one value: measured Unordered of CCCCn1cc[n+](C)c1.O=S(=O)([O-])C(F)(F)F [[C4C1Im][CF3SO3]]
0.212

* * *

# studySystem: BSA (Bos taurus)
# Construct: purchased Millipore Sigma-Aldrich
# assayOverview: DSC thermal unfolding of BSA in water and aqueous solutions of ABS phase-forming components
# Type: physicochemical, bovine
# conditionParameters: 1.0 mg/mL BSA, 0.1 mM component
valueType: ΔG (kcal/mol)
// return numeric value only (unit: kcal/mol, not printed)

molecule="OC[C@H]1O[C@@](CO)(O[C@H]2O[C@H](CO)[C@@H](O)[C@H](O)[C@H]2O)[C@@H](O)[C@@H]1O [Sucrose, sucrose]" valuetype=ΔG observedresult=19.6

Give the reported ΔG for this molecule. C[N+](C)(C)CCO.O=S(=O)([O-])C(F)(F)C(F)(F)C(F)(F)C(F)(F)F [[N1112(OH)][C4F9SO3]]
22.44

For the molecule CCn1cc[n+](C)c1.O=S(=O)([O-])C(F)(F)C(F)(F)C(F)(F)C(F)(F)F , give its reported ΔG.
17.28

Using the record for CCCCn1cc[n+](C)c1.O=S(=O)([O-])C(F)(F)F [[C4C1Im][CF3SO3]] , state its measured ΔG.
17.42

Output measured ΔG for this item: C[N+](C)(C)CCO.C[N+](C)(C)CCO.O=P([O-])(O)O.O=P([O-])(O)O [[N1112(OH)][H2PO4]]
15.2

* * *

# studySystem: BSA (Bos taurus)
# Construct: purchased Millipore Sigma-Aldrich
# assayOverview: DSC thermal unfolding of BSA in water and aqueous solutions of ABS phase-forming components
# Type: physicochemical, bovine
# conditionParameters: 1.0 mg/mL BSA, 1 mM component
# Experimental: Differential scanning calorimetry (DSC) measurements were performed with Nano DSC equipment, as detailed in Section 3, and used to determine the melting temperature (T m ) and enthalpy ( Δ H) of protein unfolding. […] Due to the volume and concentration requirements of the DSC technique, and the constraints in available quantities of IFN- α 2b the DSC experiments on the ABS phase-forming components’ effect on the structural properties of proteins were attained only for BSA. […]
This listing pairs molecules with measured ΔHcal.
Could you give me the number in kcal/mol? Just the number is fine.

molecule="OC[C@H]1O[C@@](CO)(O[C@H]2O[C@H](CO)[C@@H](O)[C@H](O)[C@H]2O)[C@@H](O)[C@@H]1O [Sucrose, sucrose]" scaleunit=kcal/mol observedresult=167.4

Then there is this molecule:
Give reported ΔHcal value for CCCCn1cc[n+](C)c1.O=S(=O)([O-])C(F)(F)F [[C4C1Im][CF3SO3]]
100.9

* * *

# studySystem: BSA (Bos taurus)
# Construct: purchased Millipore Sigma-Aldrich
# assayOverview: Far-UV CD secondary structure of BSA (CONTIN-LL deconvolution)
# Assay type: physicochemical, bovine
# conditionParameters: 1.0 mg/mL BSA, 0.1 mM component, 25 °C
valueType: Regular Alpha Helix
# answer = number (no unit)

compound="C[N+](C)(C)CCO.C[N+](C)(C)CCO.O=P([O-])(O)O.O=P([O-])(O)O [[N1112(OH)][H2PO4]]" observedresult=0.397
compound=CCn1cc[n+](C)c1.O=S(=O)([O-])C(F)(F)C(F)(F)C(F)(F)C(F)(F)F observedresult=0.407
compound="C[N+](C)(C)CCO.O=S(=O)([O-])C(F)(F)C(F)(F)C(F)(F)C(F)(F)F [[N1112(OH)][C4F9SO3]]" observedresult=0.418

Specify reported Regular Alpha Helix for the compound shown: OC[C@H]1O[C@@](CO)(O[C@H]2O[C@H](CO)[C@@H](O)[C@H](O)[C@H]2O)[C@@H](O)[C@@H]1O
0.391

Consider the compound CCCCn1cc[n+](C)c1.O=S(=O)([O-])C(F)(F)F [[C4C1Im][CF3SO3]] . State its measured Regular Alpha Helix.
0.403

* * *

Reported values of ΔHcal/ΔHvH for individual entries
# studySystem: BSA (Bos taurus)
# Construct: purchased Millipore Sigma-Aldrich
# assayOverview: DSC thermal unfolding of BSA in water and aqueous solutions of ABS phase-forming components
# Type: physicochemical, bovine
# conditionParameters: 1.0 mg/mL BSA, 10 mM component
# respond with the number and nothing more

Some compounds with recorded ΔHcal/ΔHvH:
compound=OC[C@H]1O[C@@](CO)(O[C@H]2O[C@H](CO)[C@@H](O)[C@H](O)[C@H]2O)[C@@H](O)[C@@H]1O valuetype=ΔHcal/ΔHvH observedresult=1.046
compound=CCn1cc[n+](C)c1.O=S(=O)([O-])C(F)(F)C(F)(F)C(F)(F)C(F)(F)F valuetype=ΔHcal/ΔHvH observedresult=1.061
compound="C[N+](C)(C)CCO.O=S(=O)([O-])C(F)(F)C(F)(F)C(F)(F)C(F)(F)F [[N1112(OH)][C4F9SO3]]" valuetype=ΔHcal/ΔHvH observedresult=1.156
compound="CCCCn1cc[n+](C)c1.O=S(=O)([O-])C(F)(F)F [[C4C1Im][CF3SO3]]" valuetype=ΔHcal/ΔHvH observedresult=1.024

Give ΔHcal/ΔHvH for the following compound: C[N+](C)(C)CCO.C[N+](C)(C)CCO.O=P([O-])(O)O.O=P([O-])(O)O [[N1112(OH)][H2PO4]]
0.998

* * *

The reader will find reported ΔHcal/ΔHvH values listed item by item below.
# studySystem: BSA (Bos taurus)
# Construct: purchased Millipore Sigma-Aldrich
# assayOverview: DSC thermal unfolding of BSA in water and aqueous solutions of ABS phase-forming components
# Assay type: physicochemical, bovine
# conditionParameters: 1.0 mg/mL BSA, 5 mM component
# Description: Differential scanning calorimetry (DSC) measurements were performed with Nano DSC equipment, as detailed in Section 3, and used to determine the melting temperature (T m ) and enthalpy ( Δ H) of protein unfolding. […] Due to the volume and concentration requirements of the DSC technique, and the constraints in available quantities of IFN- α 2b the DSC experiments on the ABS phase-forming components’ effect on the structural properties of proteins were attained only for BSA. […]
Just the number, please, no unit after it.

These recorded examples may help you get a feel for the data.
molecule=CCn1cc[n+](C)c1.O=S(=O)([O-])C(F)(F)C(F)(F)C(F)(F)C(F)(F)F studysystem="BSA (Bos taurus)" observedresult=0.967
molecule="CCCCn1cc[n+](C)c1.O=S(=O)([O-])C(F)(F)F [[C4C1Im][CF3SO3]]" studysystem="BSA (Bos taurus)" observedresult=1.069
molecule="C[N+](C)(C)CCO.C[N+](C)(C)CCO.O=P([O-])(O)O.O=P([O-])(O)O [[N1112(OH)][H2PO4]]" studysystem="BSA (Bos taurus)" observedresult=1.081
molecule="OC[C@H]1O[C@@](CO)(O[C@H]2O[C@H](CO)[C@@H](O)[C@H](O)[C@H]2O)[C@@H](O)[C@@H]1O [Sucrose, sucrose]" studysystem="BSA (Bos taurus)" observedresult=1.018

// Input: C[N+](C)(C)CCO.O=S(=O)([O-])C(F)(F)C(F)(F)C(F)(F)C(F)(F)F [[N1112(OH)][C4F9SO3]] . Output its ΔHcal/ΔHvH only.
0.884

* * *

// values below are reported Turns
# studySystem: BSA (Bos taurus, UniProt P02769)
# Construct: purchased Millipore Sigma-Aldrich
# assayOverview: Far-UV CD secondary structure of BSA (CONTIN-LL deconvolution)
# Format: physicochemical, bovine
# Parameters: unit not given here
# conditionParameters: 1.0 mg/mL BSA, 1 mM component, 25 °C
# From the text: Circular dichroism (CD) is widely used to study the secondary structures of proteins, peptides and nucleic acids, because it requires a low concentration sample, is a nondestructive method, allows studying a wide range of variables (temperature, pH, etc.), and provides information on the effect of added ligands on protein folding and interactions. […]
# output: bare number, no unit

Below, 4 molecules whose answers are already recorded.
molecule=CCn1cc[n+](C)c1.O=S(=O)([O-])C(F)(F)C(F)(F)C(F)(F)C(F)(F)F valuetype=Turns observedresult=0.137
molecule="C[N+](C)(C)CCO.C[N+](C)(C)CCO.O=P([O-])(O)O.O=P([O-])(O)O [[N1112(OH)][H2PO4]]" valuetype=Turns observedresult=0.132
molecule="C[N+](C)(C)CCO.O=S(=O)([O-])C(F)(F)C(F)(F)C(F)(F)C(F)(F)F [[N1112(OH)][C4F9SO3]]" valuetype=Turns observedresult=0.138
molecule="CCCCn1cc[n+](C)c1.O=S(=O)([O-])C(F)(F)F [[C4C1Im][CF3SO3]]" valuetype=Turns observedresult=0.135

# input for lookup
Give the observed Turns of OC[C@H]1O[C@@](CO)(O[C@H]2O[C@H](CO)[C@@H](O)[C@H](O)[C@H]2O)[C@@H](O)[C@@H]1O [Sucrose, sucrose] for BSA (Bos taurus, UniProt P02769).
0.135
